test system: Escherichia coli; test: Induction of plasmid pBR322 DNA cleavage assessed as concentration required to cleave 50% of DNA after 24 hrs by gel electrophoresis
property_measured: CS50 (µM)

[[record]]
smiles_string = "CC(=O)O[C@H]1C#C/C=C\\C#CC[C@H]2C(=O)N(C(=O)OC(C)(C)C)[C@H]12"
units = "µM"
test_result = 30

[[record]]
smiles_string = "CC(C)(C)OC(=O)N1C(=O)[C@@H]2CC#C/C=C\\C#C[C@@H](OC(=O)CCc3cccc4ccccc34)[C@H]21"
units = "µM"
test_result = 80

[[record]]
smiles_string = "CC(=O)O[C@@H]1C#C/C=C\\C#CC[C@H]2C(=O)N(C(=O)NCCc3cccc4ccccc34)[C@H]12"
units = "µM"
test_result = 40


====

test system: Escherichia coli; experiment: Induction of plasmid pBR322 DNA cleavage assessed as concentration required to cleave 50% of DNA after 24 hrs by gel electrophoresis
Mark rule met only when CS50 stays strictly below 40 µM. Values equal to the cut-off are rule not met.

[[record]]
smiles_string = "CCCCNC(=O)c1cc(NC(=O)c2cc(NC(=O)CCNC(=O)N3C(=O)[C@@H]4CC#C/C=C\\C#C[C@@H](OC(C)=O)[C@H]43)n(C)c2)n(C)c1"
label_value = "rule met"

[[record]]
smiles_string = "CC(=O)O[C@H]1C#C/C=C\\C#CC[C@H]2C(=O)N(C(=O)NCc3cccc4ccccc34)[C@H]12"
label_value = "rule met"

[[record]]
smiles_string = "CC(C)(C)OC(=O)N1C(=O)[C@@H]2CC#C/C=C\\C#C[C@@H](OC(=O)Cc3cccc4ccccc34)[C@H]21"
label_value = "rule not met"

[[record]]
smiles_string = "CC(=O)O[C@@H]1C#C/C=C\\C#CC[C@H]2C(=O)N(C(=O)NCc3cccc4ccccc34)[C@H]12"
label_value = "rule met"

[[record]]
smiles_string = "CC[C@@]1(O)C(=O)OCc2c1cc1n(c2=O)Cc2c-1nc1ccccc1c2/C=N/OCCNC(=O)CCNC(=O)N1C(=O)[C@@H]2CC#C/C=C\\C#C[C@@H](OC(C)=O)[C@H]21"
label_value = "rule met"

[[record]]
smiles_string = "CC(=O)O[C@@H]1C#C/C=C\\C#CC[C@H]2C(=O)N(C(=O)Nc3ccc4ccccc4c3)[C@H]12"
label_value = "rule not met"

[[record]]
smiles_string = "CC(=O)O[C@@H]1C#C/C=C\\C#CC[C@H]2C(=O)N(C(=O)NCCCCCN(C)C(=O)Cc3cccc4ccccc34)[C@H]12"
label_value = "rule met"

[[record]]
smiles_string = "CC(C)(C)OC(=O)N1C(=O)[C@@H]2CC#C/C=C\\C#C[C@@H](OC(=O)CCc3ccc4ccccc4c3)[C@H]21"
label_value = "rule not met"

[[record]]
smiles_string = "CC(=O)Nc1cc(C(=O)Nc2cc(C(=O)N(C)CCCCCNC(=O)N3C(=O)[C@@H]4CC#C/C=C\\C#C[C@@H](OC(C)=O)[C@H]43)n(C)c2)n(C)c1"
label_value = "rule met"

[[record]]
smiles_string = "CC(=O)O[C@@H]1C#C/C=C\\C#CC[C@H]2C(=O)N(C(=O)NCc3ccccc3)[C@H]12"
label_value = "rule not met"

[[record]]
smiles_string = "CC(=O)O[C@@H]1C#C/C=C\\C#CC[C@H]2C(=O)N(C(=O)NCCc3ccc4ccccc4c3)[C@H]12"
label_value = "rule not met"

[[record]]
smiles_string = "CC(=O)O[C@@H]1C#C/C=C\\C#CC[C@H]2C(=O)N(C(=O)Nc3cccc4ccccc34)[C@H]12"
label_value = "rule met"

[[record]]
smiles_string = "CC(=O)O[C@@H]1C#C/C=C\\C#CC[C@H]2C(=O)N(C(=O)NCc3ccc4ccccc4c3)[C@H]12"
label_value = "rule not met"

[[record]]
smiles_string = "CC(=O)O[C@@H]1C#C/C=C\\C#CC[C@H]2C(=O)N(C(=O)NCCC(=O)NCc3ccccc3)[C@H]12"
label_value = "rule met"

